Reported Ki values follow for various compounds
Experiment: Displacement of [3H]methyllycaconitine from chimeric alpha7nAChR K145A mutant/5HT3A receptor in tsA201 cells
Format: cell-based, Homo sapiens
Reported Property: Ki (nM)

- C1=CC([N+]23CC[C@@H]4[C@@H]5[C@@H]6[C@@H](OCC=C(C2)[C@@H]6C[C@@H]43)N2c3ccccc3[C@@]34CC[N+]6(C7C=CCCC7)CC7=CCO[C@H]([C@@H]([C@H]23)[C@H]7C[C@@H]46)N5c2ccccc2)CCC1.[Br-].[Br-] (stereo partly specified): 320
- CCN1C[C@]2(COC(=O)c3ccccc3N3C(=O)C[C@H](C)C3=O)CC[C@H](OC)[C@@]34[C@@H]5C[C@H]6[C@H](OC)[C@@H]5[C@](O)(C[C@@H]6OC)[C@](O)([C@@H](OC)[C@H]23)[C@@H]14 [METHYLLYCACONITINE]: 3.9
- C[N+]12CC[C@@H]3[C@@H]4[C@@H]5[C@@H](OCC=C(C1)[C@@H]5C[C@@H]32)N1c2ccccc2[C@@]23CC[N+]5(C)CC6=CCO[C@H]([C@@H]([C@H]12)[C@H]6C[C@@H]35)N4c1ccccc1.[I-].[I-] (stereo partly specified): 250
- C[N+](C)(C)Cc1c2n(c3ccccc13)Cc1c(C[N+](C)(C)C)c3ccccc3n1C2.[I-].[I-]: 7200
- O=[N+]([O-])c1ccc(C[N+]23CC[C@@H]4[C@@H]5[C@@H]6[C@@H](OCC=C(C2)[C@@H]6C[C@@H]43)N2c3ccccc3[C@@]34CC[N+]6(Cc7ccc([N+](=O)[O-])cc7)CC7=CCO[C@H]([C@@H]([C@H]23)[C@H]7C[C@@H]46)N5c2ccccc2)cc1.[Br-].[Br-] (stereo partly specified): 28
- C[N+]12CC[C@@H]3[C@@H]4/C(=C\N5c6ccccc6[C@@]67CC[N+]8(C)CC9=CCO[C@H]([C@@H]([C@H]56)[C@H]9C[C@@H]78)N4c4ccccc4)[C@@H](C[C@@H]31)/C(=C\CO)C2.[I-].[I-] (stereo partly specified): 890

---

Target: Glycine receptor subunit alpha-1 (Homo sapiens, UniProt P23415)
Sequence (P23415 whole entry): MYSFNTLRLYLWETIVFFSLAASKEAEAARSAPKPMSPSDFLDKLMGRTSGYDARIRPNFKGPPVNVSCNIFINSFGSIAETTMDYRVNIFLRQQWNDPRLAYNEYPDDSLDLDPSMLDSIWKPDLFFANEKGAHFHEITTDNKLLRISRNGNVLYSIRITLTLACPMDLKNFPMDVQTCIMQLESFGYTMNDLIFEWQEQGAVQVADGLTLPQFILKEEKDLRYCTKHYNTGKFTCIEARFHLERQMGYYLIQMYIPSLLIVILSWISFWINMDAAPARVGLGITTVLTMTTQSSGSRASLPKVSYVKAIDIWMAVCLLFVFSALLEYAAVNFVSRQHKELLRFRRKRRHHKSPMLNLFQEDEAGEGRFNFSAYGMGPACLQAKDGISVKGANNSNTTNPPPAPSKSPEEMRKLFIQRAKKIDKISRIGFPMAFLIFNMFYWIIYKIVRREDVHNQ
Test: Antagonist activity at human glycine alpha-1 receptor in HEK293 cells by FMP assay
Format: functional, cell-based
Conditions: hek293
Reported pIC50 values follow for various compounds
Reported Property: pIC50

• C=CC[N+](C)(C)Cc1c2n(c3ccccc13)Cc1c(C[N+](C)(C)CC=C)c3ccccc3n1C2.[Br-].[Br-] = < 4
• C[N+](C)(Cc1ccc([N+](=O)[O-])cc1)Cc1c2n(c3ccccc13)Cc1c(C[N+](C)(C)Cc3ccc([N+](=O)[O-])cc3)c3ccccc3n1C2.[Br-].[Br-] = < 4
• C[N+]12CCC34c5ccccc5N5/C=C6/[C@H]7C[C@H]8[C@@]9(CC[N+]8(C)C/C7=C/CO)c7ccccc7N(/C=C(/[C@@H](C[C@@H]31)/C(=C\CO)C2)[C@H]54)[C@@H]69.[Cl-].[Cl-] (stereo partly drawn) = < 4

---

Biological target: Neuronal acetylcholine receptor subunit alpha-7 (Homo sapiens, UniProt P36544)
Sequence (P36544 whole entry): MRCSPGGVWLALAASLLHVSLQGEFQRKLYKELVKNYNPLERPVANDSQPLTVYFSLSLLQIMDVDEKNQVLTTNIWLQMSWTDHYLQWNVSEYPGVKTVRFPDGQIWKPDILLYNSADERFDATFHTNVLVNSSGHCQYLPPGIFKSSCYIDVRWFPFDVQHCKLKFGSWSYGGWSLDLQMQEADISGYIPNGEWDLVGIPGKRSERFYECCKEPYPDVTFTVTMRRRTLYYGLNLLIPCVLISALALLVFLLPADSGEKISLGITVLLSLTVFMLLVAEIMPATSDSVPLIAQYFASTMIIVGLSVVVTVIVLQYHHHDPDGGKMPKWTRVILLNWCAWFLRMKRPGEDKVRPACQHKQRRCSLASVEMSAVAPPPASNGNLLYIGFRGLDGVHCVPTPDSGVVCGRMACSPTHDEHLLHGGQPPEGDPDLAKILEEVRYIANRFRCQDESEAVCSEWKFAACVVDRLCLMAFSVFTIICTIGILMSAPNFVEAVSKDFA
Assay: Displacement of [3H]methyllycaconitine from human alpha-7 in tsA201 cells coexpressed with 5HT3A receptor
Format: cell-based
Settings: read-out: pKi (converted)
Reported Ki values follow for various compounds
Reported Property: Ki (nM)

- C=CC[N+](C)(C)Cc1c2n(c3ccccc13)Cc1c(C[N+](C)(C)CC=C)c3ccccc3n1C2.[Br-].[Br-]: 3980
- COc1ccc(C[N+]23CC[C@@H]4[C@@H]5[C@@H]6[C@@H](OCC=C(C2)[C@@H]6C[C@@H]43)N2c3ccccc3[C@@]34CC[N+]6(Cc7ccc(OC)c(OC)c7)CC7=CCO[C@H]([C@@H]([C@H]23)[C@H]7C[C@@H]46)N5c2ccccc2)cc1OC.[Cl-].[Cl-] (some centres not stated): 126
- C[N+](C)(Cc1ccc([N+](=O)[O-])cc1)Cc1c2n(c3ccccc13)Cc1c(C[N+](C)(C)Cc3ccc([N+](=O)[O-])cc3)c3ccccc3n1C2.[Br-].[Br-]: 2000
- O=[N+]([O-])c1ccc(C[N+]23CC[C@@H]4[C@@H]5[C@@H]6[C@@H](OCC=C(C2)[C@@H]6C[C@@H]43)N2c3ccccc3[C@@]34CC[N+]6(Cc7ccc([N+](=O)[O-])cc7)CC7=CCO[C@H]([C@@H]([C@H]23)[C@H]7C[C@@H]46)N5c2ccccc2)cc1.[Br-].[Br-] (some centres not stated): 20
- C=CC[N+]12CC[C@@H]3[C@@H]4[C@@H]5[C@@H](OCC=C(C1)[C@@H]5C[C@@H]32)N1c2ccccc2[C@@]23CC[N+]5(CC=C)CC6=CCO[C@H]([C@@H]([C@H]12)[C@H]6C[C@@H]35)N4c1ccccc1.[Br-].[Br-] (some centres not stated): 63.1
- C1=C2C[N+]3(Cc4ccc5ccccc5c4)CC[C@@H]4[C@@H]5[C@H]([C@@H](OC1)N1c6ccccc6[C@@]67CC[N+]8(Cc9ccc%10ccccc%10c9)CC9=CCO[C@H]([C@@H]([C@H]16)[C@H]9C[C@@H]78)N5c1ccccc1)[C@H]2C[C@@H]43 (some centres not stated): 316
- CC(=O)OCC[N+]12CC[C@@H]3[C@@H]4[C@@H]5[C@@H](OCC=C(C1)[C@@H]5C[C@@H]32)N1c2ccccc2[C@@]23CC[N+]5(CCOC(C)=O)CC6=CCO[C@H]([C@@H]([C@H]12)[C@H]6C[C@@H]35)N4c1ccccc1.[Br-].[Br-] (some centres not stated): 251

---

Reported IC50 values follow for various compounds
Molecular target: UniProt:P46098
Sequence (P46098 whole entry): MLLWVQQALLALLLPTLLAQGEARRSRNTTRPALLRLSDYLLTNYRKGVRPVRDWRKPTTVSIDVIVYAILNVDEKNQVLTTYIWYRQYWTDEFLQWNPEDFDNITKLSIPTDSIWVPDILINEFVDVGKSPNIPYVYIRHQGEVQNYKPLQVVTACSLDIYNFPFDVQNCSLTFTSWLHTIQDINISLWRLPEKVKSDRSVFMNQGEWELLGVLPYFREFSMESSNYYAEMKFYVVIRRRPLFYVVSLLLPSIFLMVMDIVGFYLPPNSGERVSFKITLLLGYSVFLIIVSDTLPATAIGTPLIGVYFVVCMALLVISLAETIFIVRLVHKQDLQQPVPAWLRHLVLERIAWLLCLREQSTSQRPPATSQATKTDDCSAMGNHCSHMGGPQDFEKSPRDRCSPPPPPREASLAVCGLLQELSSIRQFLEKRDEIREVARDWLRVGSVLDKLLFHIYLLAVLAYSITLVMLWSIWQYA
Assay: Antagonist activity at human 5HT3A receptor expressed in HEK293 cells by FMP assay
Format: functional, cell-based
Details: read-out: IC50
Reported Property: IC50 (µM)

• OC/C=C1/C[N+]2(C3C=CCCC3)CC[C@@H]3[C@@H]4/C(=C\N5c6ccccc6[C@@]67CC[N+]8(C9C=CCCC9)CC9=CCO[C@H]([C@@H]([C@H]56)[C@H]9C[C@@H]78)N4c4ccccc4)[C@H]1C[C@@H]32.[Br-].[Br-] (stereo not given in full) = 30
• C/C=C/C[N+]12CC[C@@H]3[C@@H]4[C@@H]5[C@@H](OCC=C(C1)[C@@H]5C[C@@H]32)N1c2ccccc2[C@@]23CC[N+]5(C/C=C/C)CC6=CCO[C@H]([C@@H]([C@H]12)[C@H]6C[C@@H]35)N4c1ccccc1.[Br-].[Br-] (stereo not given in full) = 100
• O=[N+]([O-])c1ccc(C[N+]23CCC4[C@@H]5/C(=C\N6c7ccccc7[C@@]78CC[N+]9(Cc%10ccc([N+](=O)[O-])cc%10)CC%10=CCO[C@H]([C@@H]([C@H]67)[C@H]%10C[C@@H]89)N5c5ccccc5)[C@@H](C[C@@H]42)/C(=C\CO)C3)cc1.[Br-].[Br-] (stereo not given in full) = 30

---

Reported IC50 values follow for various compounds
Molecular target: Neuronal acetylcholine receptor subunit alpha-7 (Homo sapiens, UniProt P36544)
Assay: Antagonist activity at human alpha-7 nAChR in tsA201 cells coexpressed with Ric3 by FMP assay
Assay type: functional, cell-based
Details: read-out: IC50
Reported Property: IC50 (µM)

- C/C=C/C[N+]12CC[C@@H]3[C@@H]4[C@@H]5[C@@H](OCC=C(C1)[C@@H]5C[C@@H]32)N1c2ccccc2[C@@]23CC[N+]5(C/C=C/C)CC6=CCO[C@H]([C@@H]([C@H]12)[C@H]6C[C@@H]35)N4c1ccccc1.[Br-].[Br-] (some centres undefined): 1.1
- Brc1ccc(C[N+]23CC[C@@H]4[C@@H]5[C@@H]6[C@@H](OCC=C(C2)[C@@H]6C[C@@H]43)N2c3ccccc3[C@@]34CC[N+]6(Cc7ccc(Br)cc7)CC7=CCO[C@H]([C@@H]([C@H]23)[C@H]7C[C@@H]46)N5c2ccccc2)cc1.[Br-].[Br-] (some centres undefined): 10
- C[N+](C)(Cc1ccc([N+](=O)[O-])cc1)Cc1c2n(c3ccccc13)Cc1c(C[N+](C)(C)Cc3ccc([N+](=O)[O-])cc3)c3ccccc3n1C2.[Br-].[Br-]: 30
- C1=CC([N+]23CC[C@@H]4[C@@H]5[C@@H]6[C@@H](OCC=C(C2)[C@@H]6C[C@@H]43)N2c3ccccc3[C@@]34CC[N+]6(C7C=CCCC7)CC7=CCO[C@H]([C@@H]([C@H]23)[C@H]7C[C@@H]46)N5c2ccccc2)CCC1.[Br-].[Br-] (some centres undefined): 3

---

Biological target: Neuronal acetylcholine receptor subunit alpha-7 (Homo sapiens, UniProt P36544)
Assay: Displacement of [3H]methyllycaconitine from human alpha-7 in tsA201 cells coexpressed with 5HT3A receptor
Type: cell-based
Conditions: read-out: pKi (converted)
Reported Ki values follow for various molecules
Reported Property: Ki (µM)

- C1=CC([N+]23CC[C@@H]4[C@@H]5[C@@H]6[C@@H](OCC=C(C2)[C@@H]6C[C@@H]43)N2c3ccccc3[C@@]34CC[N+]6(C7C=CCCC7)CC7=CCO[C@H]([C@@H]([C@H]23)[C@H]7C[C@@H]46)N5c2ccccc2)CCC1.[Br-].[Br-] (some centres not stated): 0.794
- OC/C=C1/CN2CC[C@H]3[C@@H]2C[C@@H]1/C1=C/N2c4ccccc4[C@@]45CCN6CC7=CCO[C@H]([C@@H]([C@H]24)[C@H]7C[C@H]65)N(c2ccccc2)[C@@H]13: 1.26
